Test: yeast display, Sf9 membrane polyspecificity reagent, FACS + sequencing; frameworks hold sequencing errors
readout.type: polyreactivity (PSR sort gate)

* QVQLVESGGGLVQAGGSLRLSCAASGFTFYKNAMGWYRQAPGKERELVAAITSSGGSTYYADSVKGRFTISRDNAKNTVYLQMNSLKPEDTAVYYCAARASRPRFGYWGQGTQVTVSS | high polyreactivity
* QVQLVESGGGLVQSGGSLRLSCAASGRTFRYYAMGWYRQAPGKERELVAAISSSGDRTYYADSVKGRFTISRDNAKNTVYLQMNSLKPEDTAVYFCAADRGARGDYWGQGTQVTVSS | high polyreactivity
* QVQIVESGGGLVQAGGSLRLSCAASGRIIGTYAMGWYRQAPGKERELVATISYSSGRTYYADSVKGRFTISRDNAKNTVYLQMNSLKPEVTAVYYCAAVGTGSSLRYDYWGQGTQVTVSS | high polyreactivity
* QVQLVESGGGVVQAGGSLRLSCAASGSIFYVYSMGWYRQAPGKERELVAAISRSGTNTYYADSVKGRFTISRDNAKNTVYLQMNSLKPEDTAVYYCNADAAYLVTQPYDDNYDYWGQGTQVTVSS | low polyreactivity
* QVQLVESGGGLVQAGGSLRLSCAASGSTFRPYAMGWYRQAPGKERDLVAAISSSGGSTYYADSVKGRFTISRDNAKNTVYLQMNSLKPEDTAVYYCAAVRRYRYPEYNHWGQGTQVTVSS | low polyreactivity
* QVQLVESGGGLVQAGGSLRLSCAASGRIFSRYAMGWYRQAPGKERELVAAINKSGGSTYYADSVKGRFTISRDNAKNTVYLQMNSLKPEDTAVYYCATDDPVYDYDYWGQGTQVTVSS | high polyreactivity
* QVQLVESGGGLVQAGGSLRLSCAASGSIFRFYAMGWYRQATGKEREFVASITGTGGSTYYADSVKGRFTISRDNAKNTVYLQMNSLKPEDTAVYYCNARPYGWYDTYRLYGYWGQGTQVTVSS | high polyreactivity
* QVQLVESGGGLVHAGGSLRLSCAASGLIFHHNAMGWYRQAPGKERELVAAISRSAGSTYYADSVKGRFTISRDNAKNTVYLQMNSLKPEDTAVYYCAKRPTPTSKYDTVGYGYWGQGTQVTVSS | low polyreactivity

Q: Give a short answer stating reported polyreactivity (PSR sort gate) for QVQLVESGGGLVQAGGSLRLSCAASGSTFYGYVMGWYRQAPGKERELVAGITRGGSTNYADSVKGRFTISRDNAKNTVYLQMNSLKPEDTAVYYCATRYFSRYYYWGQGTQVTVSS .
Result: high polyreactivity

Q: Give a short answer stating reported polyreactivity (PSR sort gate) for QVQLVESGGGLVQAGGSLRLTCAGSGSTYGKYAIGGYRQAPGKERQLVAAISYRGGRTFYADSVKGRFTISRDNAKNTVFLQMKSLKPEDTAVYYCAAYPGVSRGTGPRRYDYWGQGTQVTVSS .
Result: high polyreactivity

Q: Give a short answer stating reported polyreactivity (PSR sort gate) for QVQLVESGGGLVQAGGSLRLSCAASGFTFSIYAMGWYRQAPGKERELVAAISGRGSSTYYADSVKGRFTISRDNAKNTVYLQMNSLKPEDTAVYYCKKFHHAYFSSVYSYAGGYWGQGTQVTVSS .
Result: high polyreactivity

---

Experiment: yeast display, Sf9 membrane polyspecificity reagent, FACS + sequencing; frameworks hold sequencing errors
readout.type: polyreactivity (PSR sort gate)

Consider the following illustrative entries.
• QVQLVESGGGLVQAGGSLRLSCAASGSIFSGKAMGWYRQAPGKERELVASINRSGGSTYSADSVKGRFTISRDNAKYTVYLQMNSLKPEDTAVYSCAARRVWLAGYDSWGQGTQVTVSS = low polyreactivity
• QVQLVESGGGLVQAGGSLRLSCAASGSIFVPYAMGWYRQAPGKERELVAGINWSSGRTYYADSVKGRFTISRDNAKNTVYLQMNSLKPEDTAVYYCAAEKYTTYSFYHVAYDYWGQGTQVTVSS = high polyreactivity
• QVQLVESGGGLVQAGGSLRLSCSATGFIFYRYAMGWYRQAPGKERELVAAISSSGGSTYYADSVKGRFTISRDNAKTTVSLQMNSLKPEDTAVYYCNKRPQQYRPGYDYWGQGTQVTVSS = high polyreactivity
• QVQLVESGGGLVQAGGSLRLSCAASGSTFCYYAMGWYRQAPGKERELLAAITRSGGRTYYADSVKGRFTISRDNAKNTVYLQMNSLKPEDTAGYYCAADSRVGFGRLYGYWGQGTQVTVSS = high polyreactivity

Q: Give a short answer stating reported polyreactivity (PSR sort gate) for QVQLVESGGGLVQAGGSLRLSCAASGLTLETNAMGWYRQAPGKERELVAGITYSGGTTYYADSVKGRFTISRDNAKNSVYLQINSLKPDDTAVYDCNAGPLRSGRYTYYYWGQGTQVTVSS .
Result: low polyreactivity

---

Assay: yeast display, Sf9 membrane polyspecificity reagent, FACS + sequencing; frameworks hold sequencing errors
readout.type: polyreactivity (PSR sort gate)

Consider the following illustrative entries.
* QVQLVESGGGLVQAGGSLRLSCAASGSTFYVNTLGWYRQAPGKERELVAAISGSGTSTYYADSVKGRFTISRDNAKNTVYLQMNSLKPEDTAVYYCNKYQLVRTYGSYSYYYWGQGTQVTVSS | high polyreactivity
* QVQLVESGGGLVQAGGSLRLSCAASGRTFKWNAMGWYRQAPGKERELVAAISSRDGSTYYADSVKGRFTISRDNAKNTVYLQMNSLKPEDTAVYYCNAYFTGARQRTLGYDYWGQGTQVTVSS | low polyreactivity
* QVQLVESGGGLVQAGGSLRLSCAASGFTSWYAMGWYRQAPGKERELVAAISSGGSTNYADSVKGRFTISRDNAKNTVYLQLNSLKPEDTAVYYCNAEGYETGVPYFGFYFWGQGTQVTVSS | low polyreactivity
* QVQLVESGGGLVQAGGSLRLSCAASGRTFRRNAMGWYRQAPGKERELVASINRGGGTNYADSVKGRFTISRDNAKHTVYLQMNSLKPEDTAVYYCAAGPGTYWGYDYWGQGTQVTVSS | low polyreactivity
* QVQLVESGGGLVQAGGSLRLSCAASGFTFGWYAMGWYRQAPGKERELVAAISRRGGTTYYADSVKGRFTISRDNAKNTVYLQMNSLKPEDTAVYYCAATSYTYVLSPYRGDYWGQGTQVTVSS | high polyreactivity
* QVQLVESGGGLVQAGGSLRLSCAASGSIFTYYAMGWYRQAPGKERELVAAINWSGGSTYYADSVKGRFTISRDNAKNTVYLQMNSLKPEDTAVYYCATDYYARRHSPRYDYWGQGTQVTVSS | low polyreactivity
* QVQLVESGGGLGHAGGSLRLSCAASGGIYDYYAMGWNRQAPGKERELVTAITRSGSSTFYADSVKGRFTISRDNAKNTVYLQMKSVKPEDTAVYYCAAPYYYFAVYYGYIFEYDYWGQGTQVTVSS | low polyreactivity
* QVQLVESGGGLVQAGGSLRLSCAASGYTIGIYAMGWYRQAPGKERELVAAISFSDGTTYYADSVKGRFTISRDNAKNTVYLQMNSLKPEDTAVYYCAAAAGGTVVGEGDYWGQGTQVTVSS | low polyreactivity
* QVQLVESGGGLVQAGGSLRLSCASSGRTFYIYDMGWYRQAPGKERELVAAITSVGSTNYADSVKGRFTISRDNAMNTVYLQMNSLKPEDTAVYYCAAESTVGTSGDYDYWGQGTQVTVSS | low polyreactivity
* QVQLVESGGGLVQAGGSLRLSCAASGLTFYFYAMGWYRQAPGKERELVAAISYSGGSTYYADSVKGRFTISRDKAENTVYLQMNSLKPEDTAVYYCAARPTDGSGWPYRWTSDYWGHGTQVTVSS | low polyreactivity

Q: Give a short answer stating reported polyreactivity (PSR sort gate) for QVQLVESGGGLVQAGGSLRLSCAASGSIFRPNTMGWYRQATGKERELVADIRYRGGGTYYADSVKGRFTITRDNATNTVYLQMNSLKPEDTAVYYCAKASAQWVQFDFWGQGNQVTVSS .
Result: high polyreactivity

---

Experiment: yeast display, Sf9 membrane polyspecificity reagent, FACS + sequencing; frameworks hold sequencing errors
readout.type: polyreactivity (PSR sort gate)

* QVQLVESGGGLVQAGGSLRLSCAASGRTFIGYAMGWYRQAPGKERELVAAISSGGNTYYADSVKGRFTISRDNAKNTVYFQMNSLKPEDTAVYYCAAKGYRRVARYFIGDYWGQGTQVTVSS | low polyreactivity
* QVQLVESGGGLVQAGGSLRLSCAASGSIFTLNAMGWYRQAPGKERELVAAISRSGGSTYYADSVKGRFTISRDNAKNTVYLQLNSLKPEDTAVYYCAVYVTRDSGWWLYDYWGQGTQVTVSS | high polyreactivity
* QVQLVESGGGLVQAGGSLRLICAASRSNFFPYAMGWYRQAPGKERELVDTISGSTGRTYYADSVKGRFTISRDNAKNTVYLQMNSLKPQDTAVYYCATSVGYYLAPIKYDYWGQRTQVTVSS | low polyreactivity
* QVQLVESGGGLVQAGGSHRLSCAASGRTFYRYVMGWYRQAPGKERELVAAIRSSGTSTYYADSVKGRFTISRDNAKNTVYLQINSLKPEDTAVNYCARDSYRGYVYSLDYWGQGNQVTVSS | high polyreactivity
* QVQLVESGGGLVQAGGSLRLSCAASGSTFQLYAMGWYRQAPGKESELVASISWSGGSTYYADSVKGRFTISRDNAKNTVYLQMNSLKPEDTAVYYCAADSRLYLRDDYWGQGTQVTVSS | low polyreactivity

Q: Give a short answer stating reported polyreactivity (PSR sort gate) for QVQLVESGGGLVQAGGSLRLSCAASGRIFPDNAMGWYRQARGKERELVAAMTYSGGSTSYADSVKGRFTISRDNAKNTVYLQMNSLKPEDTAVYYCNKGGGTSYDYVRVDKYPGDYWGQGTQVTVSS .
Result: low polyreactivity

Q: Give a short answer stating reported polyreactivity (PSR sort gate) for QVKLEESGGCLVQAGGSLRLSCAASGFTFEENAMGWYRQAPGKERELVAAINWSGGNTYYADSVKGRFTISRDNAKNTVYLQMNSLKPEDTAVYYCAADSPRYYYWVGPYYGYDYWGQGTQVTVSS .
Result: high polyreactivity

Q: Give a short answer stating reported polyreactivity (PSR sort gate) for QDQLVESGGGLDQAGGSLRLSCAASGRTFLWNAMGWYRQAPGKERELVARINLSGGRTYYADSVKGRFTISRDNAKNTVYLQMNSLKPDDTAVYYCAATVVRYRRDSWGQGTQVTVSS .
Result: low polyreactivity

Q: Give a short answer stating reported polyreactivity (PSR sort gate) for QVQLVESGGGLVQAGGSLRLSCAASGSIFQSYAMGWYRQAPGKERELVAAIDRSGTSTYYADSVKGRFTISRDNAKNTVYLQMNSLKPEDTAVYYCNTLRRSWQMDYWGQGTQVTVSS .
Result: low polyreactivity
